# methodSummary: chemical genetic growth profiling, strain panel (AID 1159580);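 also: tested at 20 µM; growth read once vehicle control cultures reached saturation at 30 °C; 1 = growth at the plate median or of vehicle wells; lower values mean less growth of the strain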
# experimentalContext: S. cerevisiae deletion strains, growth OD, locus YOR136W, strain idh2, hits give low values
The campaign covered roughly 5,500 compounds. About 2,000 (36%) were called active. Not shown: some 18% with an inconclusive outcome. The list shows a part of the results.
Assignment: determine reported normalized growth for the given molecules.
Lab note: write the figure by itself, no unit.

Data request: Quick one: normalized growth for `O=C(O)c1ccccc1-c1c2cc(Br)c(=O)cc-2oc2[c]([Hg])c(O)c(Br)cc12` ?
Data returned: 0.0743

Data request: Suppose we examine the molecule `CC1(C)O[C@H]2[C@H](O)C[C@](O)(C(N)=O)C[C@H]2O1` ; what normalized growth value has been reported?
Data returned: 1.04

Data request: Need normalized growth of C[C@@H]1C(=O)OC2[C@H](O)C34[C@@H]5OC(=O)[C@@]3(O[C@@H]3OC(=O)[C@H](O)[C@@]34[C@H](C(C)(C)C)[C@H]5O)[C@]21O (stereo partly specified) , thanks.
Data returned: 1.01

Data request: Give its normalized growth value. Item: `Cc1cccc(C)c1NC1=NCCCS1`
Data returned: 0.995

Data request: Quick one: normalized growth of CC(C)NCC(O)c1cc(O)cc(O)c1 (stereo unspecified) ?
Data returned: 0.997

Data request: May I ask what normalized growth has been recorded for `O=c1cc[nH]c(=S)[nH]1` ?
Data returned: 1.01

* * *

# methodSummary: chemical genetic growth profiling, strain panel (AID 1159580);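 also: tested at 20 µM; growth read once vehicle control cultures reached saturation at 30 °C; 1 = growth at the plate median or of vehicle wells; lower values mean less growth of the strain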
# experimentalContext: S. cerevisiae deletion strains, growth OD, locus YBR231C, strain swc5, hits give low values
Hit rate of the full screen: of about 5,500 compounds, about 2,000 (36%) were called active. About 18% were inconclusive and are not listed. This is one part of the list.
observedProperty: normalized growth
Quick one: just the number, no unit, thanks!

Data request: Which normalized growth reading was recorded for the molecule `CO/N=C(\C(=O)N[C@@H]1C(=O)N2C(C(=O)O)=C(CSc3nc(=O)c(O)nn3C)CS[C@H]12)c1csc(N)n1` ?
Data returned: 0.975

Data request: Query (molecule): CO/N=C(\C(=O)NC1C(=O)N2C(C(=O)O)=C(COC(N)=O)CSC12)c1ccco1 (stereo not given) ; field requested: normalized growth
Data returned: 0.971

Data request: What does the data say about its normalized growth? Entry: O=C1CC2OCC=C3CN4CC[C@]56c7ccccc7N1C5[C@H]2[C@H]3CC46 (stereo not given in full)
Data returned: 1.02

Data request: Given the entry `OCCOCCN1CCN(C2=Nc3ccccc3Sc3ccccc32)CC1` , report its measured normalized growth.
Data returned: 1.01

Data request: # lookup: normalized growth of `COc1ccc(CCN2CCC(Nc3nc4ccccc4n3Cc3ccc(F)cc3)CC2)cc1`
Data returned: 0.981

Data request: Returns the measured normalized growth for the input molecule. Input: CCCC(=O)O[C@]1(C(=O)CO)CCC2[C@@H]3CCC4=CC(=O)CC[C@]4(C)C3[C@@H](O)C[C@@]21C (stereo not given in full)
Data returned: 1

Data request: Given COC(=O)C(O)c1ccccc1 (stereo not given) , state its recorded normalized growth.
Data returned: 0.961

Data request: # query: normalized growth of entry CC(C(=O)O)c1ccc(C(=O)c2cccs2)cc1 (stereo not given)
Data returned: 1

Data request: Data request, read-out normalized growth, for COC(=O)C(C)c1ccc(C(=O)c2cccs2)cc1 (stereo not given)
Data returned: 1.02

Data request: Could you tell me which normalized growth is on file for `CO/N=C(\C(=O)N[C@@H]1C(=O)N2C(C(=O)O)=C(COC(C)=O)CS[C@H]12)c1csc(N)n1` ?
Data returned: 0.975
